target: G12V KRAS (aa2-184) (Homo sapiens, UniProt P01116, G12V); experiment: biochemical
Sequence (P01116 2-184 isoform P01116-2 G12V): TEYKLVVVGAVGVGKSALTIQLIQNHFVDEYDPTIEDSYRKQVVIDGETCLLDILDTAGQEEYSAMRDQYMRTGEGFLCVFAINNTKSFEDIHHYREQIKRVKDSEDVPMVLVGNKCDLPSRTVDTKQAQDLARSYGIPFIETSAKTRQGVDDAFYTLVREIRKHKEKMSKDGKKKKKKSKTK
quantity-measured: Kd (nM)

Observe how each entry below is paired with its result.
C#Cc1cccc2cc(O)cc(-c3ncc4c(N5CCC[C@@H](CC#N)C5)nc(OC[C@@]56CCCN5C[C@H](F)C6)nc4c3F)c12 [Example 1]; 0.454
Oc1cc(-c2ncc3c(N4C[C@@H]5C[C@H](C4)[C@H](O)C5)nc(OC[C@@]45CCCN4C[C@H](F)C5)nc3c2F)c2c(F)c(F)ccc2c1 [Example 14]; 0.461

(a) CC(=O)N1CCN(c2nc(OC[C@@]34CCCN3C[C@H](F)C4)nc3c(F)c(-c4cc(O)cc5ccc(F)c(F)c45)ncc23)C[C@@H]1CC#N [Example 13]
(b) C#Cc1cccc2cc(O)cc(-c3ncc4c(N5C[C@H]6CC[C@@H](C5)O6)nc(OC[C@@]56CCCN5C[C@H](F)C6)nc4c3F)c12 [Example 2]
(c) C#Cc1cccc2cc(O)cc(-c3ncc4c(N5C[C@H](CC#N)[C@@H](F)C5)nc(OC[C@@]56CCCN5C[C@H](F)C6)nc4c3F)c12 (mixture of isomers) [Example 7]
(d) C#Cc1c(F)ccc2cc(O)cc(-c3ncc4c(N5CCC[C@@H](CC#N)C5)nc(OC[C@@]56CCCN5C[C@H](F)C6)nc4c3F)c12 [Example 15]
Query :: Ordering: ascending Kd. Form entry: ranked labels (order as requested).
Result :: d, b, c, a
(d: 0.274 nM, b: 0.515 nM, c: 6.71 nM, a: 10.4 nM)

---

target: G12V KRAS (aa2-184) (Homo sapiens, UniProt P01116, G12V)
quantity-measured: pKd
FYI, pKd means -log10 of a concentration in mol per litre.

Query :: Please provide the recorded pKd for `C#Cc1c(F)c(F)cc2cc(O)cc(-c3nc4c5c(nc(OC[C@@]67CCCN6C[C@H](F)C7)nc5c3F)N3CCCC[C@H]3CO4)c12` , tested on G12V KRAS (aa2-184) (Homo sapiens, UniProt P01116, G12V).
Result :: 10.02

---

target: G12V KRAS (aa2-184) (Homo sapiens, UniProt P01116, G12V); assay: biochemical
quantity-measured: Kd (nM)

(A) C#Cc1cccc2cc(O)cc(-c3ncc4c(N5CCC[C@@](C)(CC#N)C5)nc(OC[C@@]56CCCN5C[C@H](F)C6)nc4c3F)c12
(B) C#Cc1c(F)ccc2cc(O)cc(-c3ncc4c(N5C[C@@H]6C[C@H](C5)[C@H](O)C6)nc(OC[C@@]56CCCN5C[C@H](F)C6)nc4c3F)c12
(C) N#C[C@@H]1CCCN1c1nc(OC[C@@]23CCCN2C[C@H](F)C3)nc2c(F)c(-c3cc(O)cc4ccc(F)c(F)c34)ncc12
(D) C#Cc1cccc2cc(O)cc(-c3ncc4c(N5CC[C@@](C)(CC#N)C5)nc(OC[C@@]56CCCN5C[C@H](F)C6)nc4c3F)c12
(E) C#Cc1c(F)ccc2cc(O)cc(-c3nc4c5c(nc(OC[C@@]67CCCN6C[C@H](F)C7)nc5c3F)N(C)CCO4)c12
Query :: // ascending sort on recorded Kd # the answer lists labels in the order requested
Result :: E, B, A, D, C

---

biological target: G12C KRAS (aa2-184) (Homo sapiens, UniProt P01116, G12C); assay: biochemical
Sequence (P01116 2-184 isoform P01116-2 G12C): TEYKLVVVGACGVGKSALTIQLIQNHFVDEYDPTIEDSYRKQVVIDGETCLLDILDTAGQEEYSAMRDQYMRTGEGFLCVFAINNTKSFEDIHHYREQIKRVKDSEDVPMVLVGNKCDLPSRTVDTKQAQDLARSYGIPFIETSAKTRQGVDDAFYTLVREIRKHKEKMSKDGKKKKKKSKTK
quantity-measured: Kd (pM)

// solved cases for Kd follow
C#Cc1cccc2cc(O)cc(-c3ncc4c(N5C[C@H]6C[C@@H](O)[C@@H](C5)O6)nc(OC[C@@]56CCCN5C[C@H](F)C6)nc4c3F)c12 (relative stereo); 759
C#Cc1c(F)ccc2cccc(-c3nc4c5c(nc(OC[C@@]67CCCN6C[C@H](F)C7)nc5c3F)N3C[C@@H](O)CC[C@H]3CO4)c12; 1100

(I) C#Cc1cccc2cc(O)cc(-c3ncc4c(N5CCC[C@@](C)(CC#N)C5)nc(OC[C@@]56CCCN5C[C@H](F)C6)nc4c3F)c12
(II) Oc1cc(-c2ncc3c(N4C[C@@H]5C[C@H](C4)[C@H](O)C5)nc(OC[C@@]45CCCN4C[C@H](F)C5)nc3c2F)c2c(Cl)cccc2c1
(III) C#Cc1c(F)ccc2cc(O)cc(-c3nc4c5c(nc(OC[C@@]67CCCN6C[C@H](F)C7)nc5c3F)N(C)CCO4)c12
Query :: Task for the reader: rank each entry by its Kd, from the minimum upward. Respond with an ordered listing of the labels, as requested.
Result :: III, II, I
(III: 79 pM, II: 629 pM, I: 1540 pM)

---

biological target: G12V KRAS (aa2-184) (Homo sapiens, UniProt P01116, G12V); experiment: biochemical
pKd: −log10 of the molar value.
quantity-measured: pKd

N#CC[C@@H]1CCCN(c2nc(OC[C@@]34CCCN3C[C@H](F)C4)nc3c(F)c(-c4cc(O)cc5ccc(F)c(F)c45)ncc23)C1 [Example 12]; 9.93

(A) Oc1cc(-c2ncc3c(N4C[C@@H]5C[C@H](C4)[C@H](O)C5)nc(OC[C@@]45CCCN4C[C@H](F)C5)nc3c2F)c2c(Cl)cccc2c1 [Example 20]
(B) C#Cc1c(F)ccc2cccc(-c3nc4c5c(nc(OC[C@@]67CCCN6C[C@H](F)C7)nc5c3F)N3CCCC[C@H]3CO4)c12 [Example 29]
Query :: Higher pKd: A or B ? Write the label of whichever entry you select.
Result :: A

(a) C#Cc1cccc2cc(O)cc(-c3ncc4c(N5C[C@H]6C[C@@H](O)[C@@H](C5)O6)nc(OC[C@@]56CCCN5C[C@H](F)C6)nc4c3F)c12 (relative stereo) [Example 18]
(b) Oc1cc(-c2ncc3c(N4C[C@H]5C[C@@H](O)[C@H]5C4)nc(OC[C@@]45CCCN4C[C@H](F)C5)nc3c2F)c2c(Cl)cccc2c1 (relative stereo) [Example 21]
Query :: Identify the item whose pKd is the smaller number: a or b Return value: the label identifying the chosen record.
Result :: b
